The reported numbers originate from patent US20220324953A1.

# measured-target: T1, mouse CTGF (antigen of the Biacore assay) (mouse, UniProt P29268 26-348)
# T1 construct: also called mouse CTGF protein
# T1 sequence (looked up): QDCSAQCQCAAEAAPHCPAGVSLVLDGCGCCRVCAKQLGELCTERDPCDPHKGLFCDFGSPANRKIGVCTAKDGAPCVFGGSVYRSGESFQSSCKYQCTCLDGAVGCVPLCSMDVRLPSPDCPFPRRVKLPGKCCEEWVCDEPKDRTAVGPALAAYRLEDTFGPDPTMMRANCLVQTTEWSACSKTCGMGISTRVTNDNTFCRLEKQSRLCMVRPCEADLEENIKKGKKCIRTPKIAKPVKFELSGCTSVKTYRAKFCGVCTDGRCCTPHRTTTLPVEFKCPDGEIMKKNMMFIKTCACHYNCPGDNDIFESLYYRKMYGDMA
# assay-summary: Biacore, antibody captured on Protein A, mouse CTGF in flow, 1:1 fit
pKd: −log10 of the molar value.

>  <binder>
Hu164-68wl (antibody, human IgG1, lambda, V domains shown) VH: EVTLKESGPVLVKPTETLTLTCTVSGFSLSTFGVHWIRQPPGKGLEWLGVIWRRGGTDYNAAFMSRLTISKDTSKSQVVFTMTNMDPVDTATYYCARDGGFDYWGQGTTVTVSS VL: ETVVTQEPSFSVSPGGTVTLTCRSSIGAVTTSNYANWVQQTPGQAFRGLIGGTSNRAPGVPDRFSGSILGNKAALTITGAQADDESDYYCALWYSTHYVFGGGTKLTVLG

>  <pKd>
9.88

$$$$
>  <binder>
Hu95-31wk (antibody, human IgG1, kappa, V domains shown) VH: EVQLVQSGAEVKKPGASVKVSCKASGFTFTNYDIHWVKQAPGQRLEWMGLVYPYNGGTAYNQKFKDKVTLTFDTSASTAYMELSSLRSEDTAVYYCARWGLIPGTTSYFDVWGQGTTVTVSS VL: EIVLTQSPATLSLSPGERATLSCRASSSVSYIHWYQQKPGQAPRPWIYATSNLASGIPARFSGSGSGTDYTLTISRLEPEDFAVYYCQQWNSNPWTFGGGTKVEIKR

>  <pKd>
8.54

$$$$
>  <binder>
chimeric antibody Ch147 (antibody, human IgG1, kappa, V domains shown) VH: EVQLVESGGGLVQPEGSLKLSCAASGFSFNTYAMNWVRQAPGKGLEWVARIRTKSNNYATYYADSVKDRFTISRDDSESMLYLQMNNLKTEDTAMYYCVETGFAYWDQGTLVTVSA VL: QIVLTQSPAIMSASPGEKVTITCSASSSVSYMHWFQQKPGTSPKLWIYSTSNLASGVPARFSGSGSGTSYSLTISRMEAEDAATYYCQQRSSYPLTFGAGTKLELKR

>  <pKd>
8.91

$$$$
